- ASSAY_EXPLANATION: physchem
- CONDITION_INFO: pH 6.8, aqueous buffer, kinetic from dmso stock, Solubility (pH 6.8)
READOUT_TYPE: log10(solubility at 24 h) (log10 of the value in mg/mL)
Scale: log10; quantity: solubility at 24 h; unit before log: mg/mL

> print(dat)
                                   compound  result
1  CCO[C@H]1CN(c2cccc(-c3cccc(Cl)c3OCc3cc4c(c(OC)c3)CN(C3CCOCC3)CC4)n2)CC[C@H]1C(=O)O   -1.23

compound Cc1cccc(-c2cccc(N3C[C@@H]4C[C@]4(C(=O)O)C3)n2)c1OCc1ccc2c(c1C)CCN(C1CCOCC1)CC2 , log10(solubility at 24 h) observed: -1.17

compound Cc1ccc(OCc2cc(C)c3c(c2)CCN(C2COC2)C3)c(-c2csc(N3CC[C@@]4(C(=O)O)C[C@H]4C3)n2)c1 , log10(solubility at 24 h) observed: -2.31

compound CCc1cc(COc2c(C)cccc2-c2cccc(N3C[C@@H]4C[C@]4(C(=O)O)[C@H]3COC)n2)cc2c1CN(C1CCOC1)CC2 (stereo partly drawn) , log10(solubility at 24 h) observed: -1.09

compound COC[C@H]1N(c2cccc(-c3cccc(C)c3OCc3cc(C#N)c4c(c3)CCN(C3CCOCC3)C4)n2)C[C@@H]2C[C@@]21C(=O)O , log10(solubility at 24 h) observed: -0.80

compound O=C(O)[C@@]12CCN(c3cccc(-c4ccccc4OCc4ccc5c(c4)CCN(C4COC4)C5)n3)C[C@@H]1C2 , log10(solubility at 24 h) observed: -1.24

compound Cc1cccc(-c2cccc(N3CC[C@H](C(=O)O)[C@@H]4OCCC[C@H]43)n2)c1OCc1ccc2c(c1C)CCN(C1CCOCC1)CC2 , log10(solubility at 24 h) observed: -1.11

compound CCO[C@@H]1CN(c2nc(-c3cc(C)ccc3OCc3cc4c(c(OC)c3)CN(C3CCOCC3)CC4)cs2)CC[C@@H]1C(=O)O , log10(solubility at 24 h) observed: -0.94

compound COC[C@H]1N(c2cccc(-c3cccc(C)c3OCc3ccc4c(c3C)CCN(C3CCOCC3)CC4)n2)C[C@@H]2C[C@@]21C(=O)O , log10(solubility at 24 h) observed: -1.13

compound CO[C@@H]1CN(c2nc(-c3cccc(C)c3OCc3ccc4c(c3C)CCN(C3CCOCC3)C4)cs2)CC[C@@H]1C(=O)O , log10(solubility at 24 h) observed: -1.12

compound Cc1cccc(-c2csc(N3C[C@@H]4C[C@]4(C(=O)O)C3)n2)c1OCc1ccc2c(c1C)CCN(C1COC1)CC2 , log10(solubility at 24 h) observed: -1.25

---

- ASSAY_EXPLANATION: physchem
- CONDITION_INFO: pH 2.2, aqueous buffer, kinetic from dmso stock, Solubility (pH 2.2)
READOUT_TYPE: solubility at 24 h (µg/mL)
I only need the number, in µg/mL, no unit after it.

Example compounds with recorded solubility at 24 h:
> print(dat)
                                   compound  units.symbol  result
1  CCOC[C@@H]1N(c2cccc(-c3cccc(C)c3OCc3cc(C)c4c(c3)CCN(C3CCOCC3)C4)n2)C[C@@H]2C[C@@]21C(=O)O         µg/mL     147
2  COC[C@@H]1N(c2cccc(-c3cccc(C)c3OCc3cc(C)c4c(c3)CCN(C3CCOCC3)C4)n2)C[C@@H]2C[C@@]21C(=O)O         µg/mL     130
3  Cc1cccc(-c2csc(N3CC[C@@]4(C(=O)O)C[C@H]4C3)n2)c1OCc1ccc2c(c1C)CCN(C1CCCOC1)C2 (some centres unmarked)         µg/mL     120

compound CO[C@@H]1CN(c2cccc(-c3cc(C)ccc3OCc3cc(C)c4c(c3)CCN(C3CCOC3)C4)n2)CC[C@@H]1C(=O)O (some centres unmarked) , solubility at 24 h observed: 110

---

Parameter solubility at 24 h: see the listing below.
- ASSAY_EXPLANATION: physchem
- CONDITION_INFO: pH 4.5, aqueous buffer, kinetic from dmso stock, Solubility (pH 4.5)
I only need the number, in mg/mL, no unit after it.

> print(dat)
                                   compound        readout.type  result
1  COC[C@H]1N(c2cccc(-c3cccc(C)c3OCc3ccc4c(c3F)CCN(C3CCOC3)CC4)n2)C[C@@H]2C[C@@]21C(=O)O (stereo partly shown)  solubility at 24 h  0.0886
2  Cc1csc(CN2CCc3c(ccc(COc4ccccc4-c4cccc(N5CC[C@@]6(C(=O)O)C[C@H]6C5)n4)c3C)C2)n1  solubility at 24 h   0.154
3  COc1cc(COc2c(C)cccc2-c2cccc(N3CC[C@H](C(=O)O)[C@H](OC)C3)n2)cc2c1CN(C1CCOCC1)CC2  solubility at 24 h   0.127

--- query ---
compound CO[C@@H]1CN(c2cccc(-c3cccc(C)c3OCc3ccc4c(c3C)CCN(C3COC3)C4)n2)CC[C@@H]1C(=O)O , solubility at 24 h observed: 0.11
